TESTED TARGET: KPNA4 ARM (importin subunit alpha-3, armadillo repeat domain) (human) (UniProt O00629)
Sequence (O00629 whole entry, the tested form may be a part): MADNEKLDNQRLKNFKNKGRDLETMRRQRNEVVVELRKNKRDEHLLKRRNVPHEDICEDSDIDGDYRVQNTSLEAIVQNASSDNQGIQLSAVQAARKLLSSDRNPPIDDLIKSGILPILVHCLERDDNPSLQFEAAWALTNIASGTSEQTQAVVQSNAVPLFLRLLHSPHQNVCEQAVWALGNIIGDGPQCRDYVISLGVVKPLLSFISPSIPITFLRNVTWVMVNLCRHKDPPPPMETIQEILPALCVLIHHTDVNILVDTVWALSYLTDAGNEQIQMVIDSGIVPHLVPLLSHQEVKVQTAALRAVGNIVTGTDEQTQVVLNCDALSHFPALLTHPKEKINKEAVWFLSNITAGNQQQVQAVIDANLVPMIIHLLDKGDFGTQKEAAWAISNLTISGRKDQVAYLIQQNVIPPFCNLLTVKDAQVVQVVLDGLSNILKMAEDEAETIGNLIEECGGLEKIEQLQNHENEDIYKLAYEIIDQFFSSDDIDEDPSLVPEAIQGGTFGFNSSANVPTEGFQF
ASSAY NAME: fluorescence polarisation; competition: unlabelled peptide in serial dilution against KPNA4 ARM (master mix at four times the KD) with the probe FITC-NCOR2(1307-1322), probe of the minor pocket; 50 mM KPO4 pH 7.5; Ki calculated from IC50
Where no end group is shown, it is not given here.
OUTCOME MEASURE: Ki
Report the figure along with its unit, number first.

Known Ki results, listed for orientation:
>  <BINDER>
GVKRTYSEVYPGQQYL-NH2 [ZMIZ2 264-279 peptide]

>  <Ki>
0.054 µM

$$$$
>  <BINDER>
DLKRRLDSITSSQSSA-NH2 [KDR 958-973 peptide]

>  <Ki>
8.9 µM

$$$$
>  <BINDER>
DHQFPAKRPRLSEPQG-NH2 [HJURP 675-690 peptide]

>  <Ki>
63 µM

$$$$

Now look at this one.
Q: Looking for the measured Ki of Ac-EISLKRSYESVEGNIK-NH2 [NCOR1 1240-1255 peptide, unphosphorylated] , can you help?
Result: 3.6 µM

Where do these numbers come from? They come from paper PMC8769072.
